tested on: choroidal neovascularization; test: Choroidal neovascularization in rats (laser photocoagulation, FFA); format: in vivo; conditions: day 14 after administration, total light spot number was 137, 0.05 μM in the vitreous chamber once a day for 1 week, BN rats
Peptide text beside a SMILES is read from it. * marks the point of attachment. X58 = O=C1C=CC(=O)N1c1cccc(CCCCCCCCCCCC(=O)*)c1; X60 = O=C1C=CC(=O)N1c1ccccc1CCCCCCCCCC(=O)*; X61 = O=C1C=CC(=O)N1c1cccc(CCCC(=O)*)c1
attribute_measured: CNV Incidence (%)
A number alone suffices; assume %.

Exam item: Please give the measured CNV Incidence (%) for this compound: C[C@H](NC(=O)CNC(=O)[C@H](CCCNC(=N)N)NC(=O)CCCCCCCCCc1ccccc1N1C(=O)C=CC1=O)C(=O)N[C@@H](CC(=O)O)C(=O)N[C@@H](CCCNC(=N)N)C(=O)N[C@@H](C)C(=O)NCC(=O)NCC(=O)NCC(=O)NCC(=O)N[C@@H](CCCNC(=N)N)C(=O)NCC(=O)N[C@@H](CC(=O)O)C(=O)O [X21] (X60-RGADRAGGGGRGD-OH)
Marked response: 46.72

Exam item: Please give the measured CNV Incidence (%) for this compound: C[C@H](NC(=O)CNC(=O)[C@H](CCCNC(=N)N)NC(=O)CCCCCCCCCCCc1cccc(N2C(=O)C=CC2=O)c1)C(=O)N[C@@H](CC(=O)O)C(=O)N[C@@H](CCCNC(=N)N)C(=O)N[C@@H](C)C(=O)NCC(=O)NCC(=O)NCC(=O)NCC(=O)N[C@@H](CCCNC(=N)N)C(=O)NCC(=O)N[C@@H](CC(=O)O)C(=O)O [X35] (X58-RGADRAGGGGRGD-OH)
Marked response: 46.72

Exam item: Please give the measured CNV Incidence (%) for this compound: C[C@H](NC(=O)CNC(=O)[C@H](CCCNC(=N)N)NC(=O)CCCc1cccc(N2C(=O)C=CC2=O)c1)C(=O)N[C@@H](CC(=O)O)C(=O)N[C@@H](CCCNC(=N)N)C(=O)N[C@@H](C)C(=O)NCC(=O)NCC(=O)NCC(=O)NCC(=O)N[C@@H](CCCNC(=N)N)C(=O)NCC(=O)N[C@@H](CC(=O)O)C(=O)O [X27] (X61-RGADRAGGGGRGD-OH)
Marked response: 42.34

###

Provide the recorded A570 nm-A630 nm for the entries that follow.
test system: human retinal capillary endothelial cells (HRCECs); assay: MTT proliferation inhibition on HRCECs; format: cell-based; conditions: 48 h, dose 0.2 μM, mean±SD
Peptide text beside a SMILES is read from it. * marks the point of attachment. X65 = O=C1C=CC(=O)N1c1cccc(CCCCCCCCCCCCC(=O)*)c1; X60 = O=C1C=CC(=O)N1c1ccccc1CCCCCCCCCC(=O)*; X52 = O=C1C=CC(=O)N1c1ccccc1CCCCCCCC(=O)*
Write no unit; give the number alone.

Exam item: Please give the measured A570 nm-A630 nm for this compound: C[C@H](NC(=O)CNC(=O)[C@H](CCCNC(=N)N)NC(=O)CCCCCCCCCCCCc1cccc(N2C(=O)C=CC2=O)c1)C(=O)N[C@@H](CC(=O)O)C(=O)N[C@@H](CCCNC(=N)N)C(=O)N[C@@H](C)C(=O)NCC(=O)NCC(=O)NCC(=O)NCC(=O)N[C@@H](CCCNC(=N)N)C(=O)NCC(=O)N[C@@H](CC(=O)O)C(=O)O [X36] (X65-RGADRAGGGGRGD-OH)
Marked response: 0.4664

Exam item: Please give the measured A570 nm-A630 nm for this compound: C[C@H](NC(=O)CNC(=O)[C@H](CCCNC(=N)N)NC(=O)CCCCCCCCCc1ccccc1N1C(=O)C=CC1=O)C(=O)N[C@@H](CC(=O)O)C(=O)N[C@@H](CCCNC(=N)N)C(=O)N[C@@H](C)C(=O)NCC(=O)NCC(=O)NCC(=O)NCC(=O)N[C@@H](CCCNC(=N)N)C(=O)NCC(=O)N[C@@H](CC(=O)O)C(=O)O [X21] (X60-RGADRAGGGGRGD-OH)
Marked response: 0.4076

Exam item: Please give the measured A570 nm-A630 nm for this compound: C[C@H](NC(=O)CNC(=O)[C@H](CCCNC(=N)N)NC(=O)CCCCCCCc1ccccc1N1C(=O)C=CC1=O)C(=O)N[C@@H](CC(=O)O)C(=O)N[C@@H](CCCNC(=N)N)C(=O)N[C@@H](C)C(=O)NCC(=O)NCC(=O)NCC(=O)NCC(=O)N[C@@H](CCCNC(=N)N)C(=O)NCC(=O)N[C@@H](CC(=O)O)C(=O)O [X19] (X52-RGADRAGGGGRGD-OH)
Marked response: 0.4664

###

experiment: Half-lives and pharmacokinetic parameters of polypeptides vs HM-1; settings: in vivo
Peptide text beside a SMILES is read from it. * marks the point of attachment. X9 = O=C1C=CC(=O)N1CCOCCOCCOCCOCCOCCCCCCCC(=O)*; X27 = O=C1C=CC(=O)N1CCOCCOCCOCCOCCCCCC(=O)*; X31 = O=C1C=CC(=O)N1CCOCCOCCOCC(=O)*
Provide the recorded AUC(0-inf) for the entries that follow.
A number alone suffices; assume ng·h/mL.

Exam item: Please give the measured AUC(0-inf) for this molecule: C[C@H](NC(=O)CNC(=O)[C@H](CCCNC(=N)N)NC(=O)CCCCCOCCOCCOCCOCCN1C(=O)C=CC1=O)C(=O)N[C@@H](CC(=O)O)C(=O)N[C@@H](CCCNC(=N)N)C(=O)N[C@@H](C)C(=O)NCC(=O)NCC(=O)NCC(=O)NCC(=O)N[C@@H](CCCNC(=N)N)C(=O)NCC(=O)N[C@@H](CC(=O)O)C(=O)O [X74] (X27-RGADRAGGGGRGD-OH)
Marked response: 33700

Exam item: Please give the measured AUC(0-inf) for this molecule: C[C@H](NC(=O)CNC(=O)[C@H](CCCNC(=N)N)NC(=O)CCCCCCCOCCOCCOCCOCCOCCN1C(=O)C=CC1=O)C(=O)N[C@@H](CC(=O)O)C(=O)N[C@@H](CCCNC(=N)N)C(=O)N[C@@H](C)C(=O)NCC(=O)NCC(=O)NCC(=O)NCC(=O)N[C@@H](CCCNC(=N)N)C(=O)NCC(=O)N[C@@H](CC(=O)O)C(=O)O [X83] (X9-RGADRAGGGGRGD-OH)
Marked response: 29200

Exam item: Please give the measured AUC(0-inf) for this molecule: C[C@H](NC(=O)CNC(=O)[C@H](CCCNC(=N)N)NC(=O)COCCOCCOCCN1C(=O)C=CC1=O)C(=O)N[C@@H](CC(=O)O)C(=O)N[C@@H](CCCNC(=N)N)C(=O)N[C@@H](C)C(=O)NCC(=O)NCC(=O)NCC(=O)NCC(=O)N[C@@H](CCCNC(=N)N)C(=O)NCC(=O)N[C@@H](CC(=O)O)C(=O)O [X63] (X31-RGADRAGGGGRGD-OH)
Marked response: 32300

###

assay: Half-lives and pharmacokinetic parameters of polypeptides vs HM-1; conditions: in vivo
Peptide text beside a SMILES is read from it. * marks the point of attachment. X46 = O=C1C=CC(=O)N1c1cccc(CCCCC(=O)*)c1; X48 = O=C1C=CC(=O)N1CCCCCCCCCCCC(=O)*; X57 = O=C1C=CC(=O)N1CCCCCCCC(=O)*
Provide the recorded MRT inf for the entries that follow.
// unit must come after the numeric part

Exam item: Please give the measured MRT inf for this compound: C[C@H](NC(=O)CNC(=O)[C@H](CCCNC(=N)N)NC(=O)CCCCc1cccc(N2C(=O)C=CC2=O)c1)C(=O)N[C@@H](CC(=O)O)C(=O)N[C@@H](CCCNC(=N)N)C(=O)N[C@@H](C)C(=O)NCC(=O)NCC(=O)NCC(=O)NCC(=O)N[C@@H](CCCNC(=N)N)C(=O)NCC(=O)N[C@@H](CC(=O)O)C(=O)O [X28] (X46-RGADRAGGGGRGD-OH)
Marked response: 45 h

Exam item: Please give the measured MRT inf for this compound: C[C@H](NC(=O)CNC(=O)[C@H](CCCNC(=N)N)NC(=O)CCCCCCCN1C(=O)C=CC1=O)C(=O)N[C@@H](CC(=O)O)C(=O)N[C@@H](CCCNC(=N)N)C(=O)N[C@@H](C)C(=O)NCC(=O)NCC(=O)NCC(=O)NCC(=O)N[C@@H](CCCNC(=N)N)C(=O)NCC(=O)N[C@@H](CC(=O)O)C(=O)O [X7] (X57-RGADRAGGGGRGD-OH)
Marked response: 61.8 h

Exam item: Please give the measured MRT inf for this compound: C[C@H](NC(=O)CNC(=O)[C@H](CCCNC(=N)N)NC(=O)CCCCCCCCCCCN1C(=O)C=CC1=O)C(=O)N[C@@H](CC(=O)O)C(=O)N[C@@H](CCCNC(=N)N)C(=O)N[C@@H](C)C(=O)NCC(=O)NCC(=O)NCC(=O)NCC(=O)N[C@@H](CCCNC(=N)N)C(=O)NCC(=O)N[C@@H](CC(=O)O)C(=O)O [X11] (X48-RGADRAGGGGRGD-OH)
Marked response: 44.9 h

// provenance: patent US20200270309A1
